experiment: probe aNOTCH3 binding on compound microarray – biochemical, small-molecule microarray, 635/667 nm fluorescence, primary screen (AID 1120); settings: higher = more signal;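 also: probe is a biotin-tagged antibody raised against NOTCH3 rather than NOTCH3 protein; score merges spot fluorescence near 667 nm with spot signal to noise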
Provide the recorded composite z-score for the entries that follow.
Numbers only.

Some molecules with recorded composite z-score:
{"columns": ["molecule", "observed_measurement"],
 "data": [
  ["COCCOC(=O)N1C(=O)[C@@]2(c3cc(C#CCNC(N)=O)ccc31)[C@H](C(=O)N1CCCCCCC1)[C@H]1C(=O)O[C@H](c3ccccc3)[C@H](c3ccccc3)N1[C@@H]2c1ccc(OCCO)cc1", 0.331],
  ["C=CCC(OC(C)=O)[C@@H]1[C@@H](N(Cc2ccc(-c3ccccc3)cc2)C(=O)Cc2ccc(OC)cc2)c2cc(OCCCO)ccc2N1C(=O)c1ccc(-c2ccccc2)cc1 (stereo partly drawn)", 0.268]
]}

Note to self: composite z-score recorded for Cc1ccccc1C(O)C1C=CC2C(=O)N(C)C(=O)C2N1Nc1ccc([N+](=O)[O-])cc1[N+](=O)[O-] (stereo not drawn) was 0.338
